Reported inhibition values for a set of compounds
Molecular target: Insulin-like growth factor 1 receptor (Homo sapiens) (UniProt P08069);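 further: values are mean percent inhibition of IGF1R kinase activity, from the GSK published kinase inhibitor set (PKIS) screening panel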
Sequence (P08069 31-736 limits assumed): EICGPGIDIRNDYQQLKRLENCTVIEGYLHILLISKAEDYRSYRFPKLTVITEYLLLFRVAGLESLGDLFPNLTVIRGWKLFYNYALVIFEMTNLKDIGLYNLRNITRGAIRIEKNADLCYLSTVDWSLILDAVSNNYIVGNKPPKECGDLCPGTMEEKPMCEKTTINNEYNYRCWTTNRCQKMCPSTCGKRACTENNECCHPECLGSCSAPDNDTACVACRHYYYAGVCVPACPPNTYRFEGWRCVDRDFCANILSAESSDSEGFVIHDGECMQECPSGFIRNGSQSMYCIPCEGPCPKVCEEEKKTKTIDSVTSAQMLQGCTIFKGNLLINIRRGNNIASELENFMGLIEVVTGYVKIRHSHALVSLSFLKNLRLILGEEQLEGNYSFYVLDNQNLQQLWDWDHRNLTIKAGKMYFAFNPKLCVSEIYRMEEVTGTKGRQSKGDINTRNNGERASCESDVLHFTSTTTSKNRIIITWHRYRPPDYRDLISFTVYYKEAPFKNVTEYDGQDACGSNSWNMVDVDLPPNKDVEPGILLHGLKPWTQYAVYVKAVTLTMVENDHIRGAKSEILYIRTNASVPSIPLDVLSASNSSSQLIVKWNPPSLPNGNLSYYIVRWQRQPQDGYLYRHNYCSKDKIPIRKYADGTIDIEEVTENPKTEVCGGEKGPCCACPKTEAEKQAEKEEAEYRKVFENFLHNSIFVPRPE
Sequence (P08069 741-1367 limits assumed): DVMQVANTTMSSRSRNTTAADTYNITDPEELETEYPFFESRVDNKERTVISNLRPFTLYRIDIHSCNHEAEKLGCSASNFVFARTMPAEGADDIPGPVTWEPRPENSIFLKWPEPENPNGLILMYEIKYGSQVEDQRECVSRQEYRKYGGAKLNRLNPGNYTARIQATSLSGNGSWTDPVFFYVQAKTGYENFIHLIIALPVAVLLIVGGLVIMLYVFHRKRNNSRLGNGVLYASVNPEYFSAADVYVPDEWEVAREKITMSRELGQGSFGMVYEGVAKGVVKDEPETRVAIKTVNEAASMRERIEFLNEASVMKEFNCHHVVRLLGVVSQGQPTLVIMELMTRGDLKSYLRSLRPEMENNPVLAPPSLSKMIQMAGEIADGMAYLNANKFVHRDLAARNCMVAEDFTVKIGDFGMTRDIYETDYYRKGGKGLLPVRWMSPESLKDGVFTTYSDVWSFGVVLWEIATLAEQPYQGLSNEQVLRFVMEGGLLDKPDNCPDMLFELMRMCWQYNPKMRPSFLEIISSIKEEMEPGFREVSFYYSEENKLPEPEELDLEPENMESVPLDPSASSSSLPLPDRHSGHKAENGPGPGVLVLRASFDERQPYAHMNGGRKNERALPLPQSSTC
Details: at 0.1 µM
The figure you give is taken to be in %; do not add the unit.

For this compound ( `O=C1NC(=O)C(c2ccccc2Cl)=C1Nc1cccc(O)c1` ), measured inhibition is 3.77

For this compound ( `CS(=O)(=O)CCNCc1ccc(-c2ccc3ncnc(Nc4ccc(OCc5cccc(F)c5)c(C(F)(F)F)c4)c3c2)o1` ), measured inhibition is 0.07

For this compound ( `CCCN1CCC=C(c2ccc(Nc3nc(Nc4ccccc4C(N)=O)c4cc[nH]c4n3)c(C)c2)C1` ), measured inhibition is 97.6

For this compound ( `Nc1nc(-c2ccccn2)c(-c2ccc3ncccc3n2)s1` ), measured inhibition is 3.05

For this compound ( `NS(=O)(=O)c1cccc(-c2ccc3c(NC(=O)C4CC4)n[nH]c3c2)c1` ), measured inhibition is -0.13

---

Target: Tyrosine-protein kinase receptor TYRO3 (Homo sapiens) (UniProt Q06418);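 further: reported percentages are averaged inhibition values of TYRO3 kinase activity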
Sequence (whole entry): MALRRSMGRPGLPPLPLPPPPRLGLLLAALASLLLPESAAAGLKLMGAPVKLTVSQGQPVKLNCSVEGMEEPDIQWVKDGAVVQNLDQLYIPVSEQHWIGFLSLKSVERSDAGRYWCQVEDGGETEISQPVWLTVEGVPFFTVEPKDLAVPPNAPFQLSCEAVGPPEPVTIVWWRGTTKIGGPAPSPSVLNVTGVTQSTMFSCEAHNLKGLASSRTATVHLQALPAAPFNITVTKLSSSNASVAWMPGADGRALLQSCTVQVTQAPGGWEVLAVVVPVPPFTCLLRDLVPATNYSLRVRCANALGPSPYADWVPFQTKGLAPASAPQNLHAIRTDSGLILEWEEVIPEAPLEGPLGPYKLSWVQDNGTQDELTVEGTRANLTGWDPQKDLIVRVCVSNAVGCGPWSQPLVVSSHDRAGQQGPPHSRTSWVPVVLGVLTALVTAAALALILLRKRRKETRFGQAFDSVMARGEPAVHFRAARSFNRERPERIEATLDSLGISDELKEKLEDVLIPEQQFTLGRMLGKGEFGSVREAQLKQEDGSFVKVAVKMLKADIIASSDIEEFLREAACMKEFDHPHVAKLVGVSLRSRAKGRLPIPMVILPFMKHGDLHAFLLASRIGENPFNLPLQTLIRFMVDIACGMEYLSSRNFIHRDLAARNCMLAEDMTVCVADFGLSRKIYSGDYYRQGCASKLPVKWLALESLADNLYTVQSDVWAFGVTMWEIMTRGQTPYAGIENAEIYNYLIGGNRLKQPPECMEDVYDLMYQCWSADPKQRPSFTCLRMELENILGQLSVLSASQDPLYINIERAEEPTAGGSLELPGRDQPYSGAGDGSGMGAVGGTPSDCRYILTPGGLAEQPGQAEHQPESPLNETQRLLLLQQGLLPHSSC
Conditions: at 0.1 µM
Reported Endpoint: inhibition (%)
The figure you give is taken to be in %; do not add the unit.

Example compounds with recorded inhibition:
smiles_text=Cc1nnc(-c2ccc(C)c(-c3ccc(C(=O)Nc4cccc(C#N)c4)cc3)c2)o1 assayed_target="Tyrosine-protein kinase receptor TYRO3 (Homo sapiens) (UniProt Q06418)" reported_endpoint=inhibition observed_result=1.94
smiles_text=CCCN1CCC(Oc2cc(Nc3nc(Nc4cccc(F)c4C(N)=O)c4cc[nH]c4n3)c(OC)cc2Cl)CC1 assayed_target="Tyrosine-protein kinase receptor TYRO3 (Homo sapiens) (UniProt Q06418)" reported_endpoint=inhibition observed_result=-0.27
smiles_text=CS(=O)(=O)CCN(CC#N)Cc1ccc(-c2ccc3ncnc(Nc4ccc(OCc5cccc(F)c5)c(Cl)c4)c3c2)o1 assayed_target="Tyrosine-protein kinase receptor TYRO3 (Homo sapiens) (UniProt Q06418)" reported_endpoint=inhibition observed_result=-1.18
smiles_text=Nc1ncnc2occ(-c3ccc(NC(=O)Nc4cccc(C(F)(F)F)c4)cc3)c12 assayed_target="Tyrosine-protein kinase receptor TYRO3 (Homo sapiens) (UniProt Q06418)" reported_endpoint=inhibition observed_result=3.18

For this compound ( `COc1cc2c(cc1Nc1nc(N3CCc4ccccc43)c3cc[nH]c3n1)N(C(=O)CN(C)C)CC2` ), measured inhibition is 1.61

For this compound ( `CS(=O)(=O)CCNCc1ccc(-c2ccc3ncnc(Nc4ccc(OCc5cccc(F)c5)c(C(F)(F)F)c4)c3c2)o1` ), measured inhibition is 3.52

For this compound ( `CCCN1CCC=C(c2ccc(Nc3nc(Nc4ccccc4C(N)=O)c4cc[nH]c4n3)c(C)c2)C1` ), measured inhibition is 0.75

For this compound ( `COc1ccc(-c2nn3ncccc3c2-c2ccnc(Nc3ccc(Cl)c(C(F)(F)F)c3)n2)cc1` ), measured inhibition is 0.79

For this compound ( `CCN1CCC(CC(=O)Nc2n[nH]c3nc(-c4cccs4)c(Br)cc23)CC1` ), measured inhibition is -1.49

For this compound ( `COC(=O)Nc1nc2cc(Oc3cccc(NC(=O)Nc4cc(C(F)(F)F)ccc4F)c3)ccc2[nH]1` ), measured inhibition is -1.36

---

Target: G protein-coupled receptor kinase 6 (Homo sapiens);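 further: values are averaged percent inhibition of GRK6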
Conditions: at 1 µM
Reported inhibition values for a set of molecules
The figure you give is taken to be in %; do not add the unit.

For this molecule ( `COc1cccc(-n2ncc3c(N/N=C/c4cccc(F)c4)ncnc32)c1` ), measured inhibition is 0.12

For this molecule ( `Cn1cc(C=C2C(=O)Nc3cccnc32)c2ccccc21` ), measured inhibition is 6.18

For this molecule ( `O=C1Nc2ccc(C(=O)c3ccco3)cc2C1=Cc1cc(Cl)c(O)c(Cl)c1` ), measured inhibition is 79.6

For this molecule ( `O=C(Nc1n[nH]c2nc(-c3ccco3)c(Br)cc12)C1CC1` ), measured inhibition is -0.55

For this molecule ( `O=C1NC(=O)C(c2cccc(Cl)c2)=C1Nc1ccc(O)c(Cl)c1` ), measured inhibition is 1

For this molecule ( CC1=C(C(=O)Nc2ccc3[nH]ncc3c2)C(c2ccc3ccccc3c2)CC(=O)N1 (stereo not given) ), measured inhibition is 13.5

For this molecule ( `CCN1CCC(CC(=O)Nc2n[nH]c3nc(-c4cccs4)c(Br)cc23)CC1` ), measured inhibition is -2.54

---

Target: Serine/threonine-protein kinase pim-1 (Homo sapiens) (UniProt P11309);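 further: reported value is the mean inhibition of PIM1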
Sequence (P11309 whole entry, looked up): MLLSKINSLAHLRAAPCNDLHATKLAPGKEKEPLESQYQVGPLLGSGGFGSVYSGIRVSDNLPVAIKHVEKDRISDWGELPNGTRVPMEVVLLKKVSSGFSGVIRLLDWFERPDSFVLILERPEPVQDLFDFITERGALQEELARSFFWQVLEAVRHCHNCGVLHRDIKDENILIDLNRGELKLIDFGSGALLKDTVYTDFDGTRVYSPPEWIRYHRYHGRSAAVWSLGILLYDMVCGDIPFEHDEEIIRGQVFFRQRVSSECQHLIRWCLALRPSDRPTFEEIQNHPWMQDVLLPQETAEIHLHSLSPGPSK
Conditions: at 0.1 µM
Reported inhibition values for a set of molecules
The figure you give is taken to be in %; do not add the unit.

smiles_text=NS(=O)(=O)c1ccc(N/N=C2\C(=O)Nc3ccc(C(=O)NCCc4c[nH]cn4)cc32)cc1 value_units=% observed_result=10.5
smiles_text=Cc1nn(C)c2cc(N(C)c3ccnc(Nc4cccc(S(N)(=O)=O)c4)n3)ccc12 value_units=% observed_result=1.18

For this molecule ( `Cn1cc(C=C2C(=O)Nc3cccnc32)c2ccccc21` ), measured inhibition is 1.3

For this molecule ( `NCc1ccc(-c2nc(-c3ccc(Cl)c(O)c3)c(-c3ccncc3)[nH]2)cc1` ), measured inhibition is 1.18

For this molecule ( `Nc1ncnc2occ(-c3ccc(NC(=O)Nc4cccc(C(F)(F)F)c4)cc3)c12` ), measured inhibition is 1.56

For this molecule ( `Cc1ccc(C(=O)NC2CCCCC2)cc1-c1ccc(C(=O)NCC2CC2)cc1` ), measured inhibition is -0.39

For this molecule ( `Cc1ccc(NC(=O)c2ccnc(N3CCCC3)c2)cc1-c1ccc(C(=O)NCC2CC2)cc1` ), measured inhibition is 0.89

For this molecule ( `COC(=O)Nc1nc2cc(Oc3cccc(NC(=O)Nc4cc(C(F)(F)F)ccc4F)c3)ccc2[nH]1` ), measured inhibition is -0.25

For this molecule ( `CS(=O)(=O)CCNCc1ccc(-c2ccc3ncnc(Nc4ccc(OCc5ccccc5)c(Cl)c4)c3c2)o1` ), measured inhibition is 0.36

For this molecule ( `CCn1c(-c2nonc2N)nc2cncc(C(=O)N3CCNCC3)c21` ), measured inhibition is 0.31

---

Reported inhibition values for a set of molecules
Biological target: Cytoplasmic tyrosine-protein kinase BMX (Homo sapiens);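 further: reported value is the mean percent inhibition of BMX, from the GSK PKIS kinase inhibitor screen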
Sequence (whole entry): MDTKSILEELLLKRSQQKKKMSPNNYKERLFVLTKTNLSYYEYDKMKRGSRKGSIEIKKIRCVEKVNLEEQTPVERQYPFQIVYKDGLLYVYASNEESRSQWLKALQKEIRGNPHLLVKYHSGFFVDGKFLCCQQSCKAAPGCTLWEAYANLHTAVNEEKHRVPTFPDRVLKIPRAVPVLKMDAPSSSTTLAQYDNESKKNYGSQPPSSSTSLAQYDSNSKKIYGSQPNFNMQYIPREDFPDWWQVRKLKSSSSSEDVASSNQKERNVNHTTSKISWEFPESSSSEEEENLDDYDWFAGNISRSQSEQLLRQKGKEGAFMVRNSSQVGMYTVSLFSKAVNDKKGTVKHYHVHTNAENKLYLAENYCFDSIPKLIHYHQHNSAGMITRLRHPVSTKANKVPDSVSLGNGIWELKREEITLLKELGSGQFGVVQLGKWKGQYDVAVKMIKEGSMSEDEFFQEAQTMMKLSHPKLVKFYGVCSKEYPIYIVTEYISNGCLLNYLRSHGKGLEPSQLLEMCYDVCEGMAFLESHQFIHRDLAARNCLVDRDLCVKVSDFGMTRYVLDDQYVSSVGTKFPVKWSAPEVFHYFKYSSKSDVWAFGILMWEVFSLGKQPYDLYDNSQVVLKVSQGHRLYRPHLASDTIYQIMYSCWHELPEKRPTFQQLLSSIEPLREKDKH
Conditions: at 1 µM
The figure you give is taken to be in %; do not add the unit.

Example molecules with recorded inhibition:
smiles_text=[O-][S+]1CCN(Cc2ccc(-c3ccc4ncnc(Nc5ccc(OCc6ccccc6)c(F)c5)c4c3)o2)CC1 reported_endpoint=inhibition value_units=% observed_result=5.88
smiles_text=CCCN1CCC(Oc2cc(Nc3nc(Nc4cccc(F)c4C(N)=O)c4cc[nH]c4n3)c(OC)cc2Cl)CC1 reported_endpoint=inhibition value_units=% observed_result=0.44
smiles_text=COc1cc(C)c(NC(=O)CN(C)C)cc1Nc1nc(Nc2cccc(F)c2C(N)=O)c2cc[nH]c2n1 reported_endpoint=inhibition value_units=% observed_result=2.64
smiles_text=COC(=O)Nc1nc2cc(Oc3ccc(NC(=O)Nc4cccc(C(=O)O)c4)cc3)ccc2[nH]1 reported_endpoint=inhibition value_units=% observed_result=0.47
smiles_text=O=C1NC(=O)C(N2CCc3ccccc32)=C1c1ccc(Cl)cc1 reported_endpoint=inhibition value_units=% observed_result=5.82
smiles_text=COc1cc2ncn(-c3cc(O[C@@H](C)c4ccccc4Cl)c(C(N)=O)s3)c2cc1OC reported_endpoint=inhibition value_units=% observed_result=6.64
smiles_text=CNC(=O)c1cncc(/C=C/c2c(Cl)cccc2Cl)c1 reported_endpoint=inhibition value_units=% observed_result=22.8
smiles_text=CS(=O)(=O)CCNCc1nc(-c2ccc3ncnc(Nc4ccc(F)c(Cl)c4)c3c2)cs1 reported_endpoint=inhibition value_units=% observed_result=7.67

Attention now turns to another entry.
For this molecule ( `CC(=O)Nc1cccc(C#Cc2cncnc2Nc2ccc(OCc3cccc(F)c3)c(Cl)c2)n1` ), measured inhibition is 0.97
